# Experimental target: T1, B7-H3 antigen H4M (human 4Ig B7-H3 amino acids 27-461 with N-terminal 10 His tag and C-terminal Myc tag) (human, UniProt Q5ZPR3 27-461, Biotinylated in the phage ELISA (labeling amount approximately 2.5, sites not stated); not biotinylated in the scFv protein ELISA)
# T1 construct: Expressed in Expi293; also called biotinylated B7-H3 antigen H4M; not shown: any linker between the tags and the B7-H3 part is not described
# T1 sequence: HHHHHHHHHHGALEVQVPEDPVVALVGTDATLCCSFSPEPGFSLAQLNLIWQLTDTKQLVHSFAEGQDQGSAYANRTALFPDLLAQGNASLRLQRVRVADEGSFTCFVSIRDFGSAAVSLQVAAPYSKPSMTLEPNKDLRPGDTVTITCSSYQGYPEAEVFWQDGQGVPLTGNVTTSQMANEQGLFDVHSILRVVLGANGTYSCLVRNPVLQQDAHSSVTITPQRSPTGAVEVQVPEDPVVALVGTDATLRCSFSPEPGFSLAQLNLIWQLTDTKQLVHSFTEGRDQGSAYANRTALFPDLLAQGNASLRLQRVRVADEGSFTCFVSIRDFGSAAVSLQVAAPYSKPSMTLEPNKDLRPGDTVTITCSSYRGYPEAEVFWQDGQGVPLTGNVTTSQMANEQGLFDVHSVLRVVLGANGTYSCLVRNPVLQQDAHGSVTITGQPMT
# Assay name: scFv protein ELISA on coated H4M
# Method: ELISA screening of scFv protein: B7-H3 antigen H4M was taken and dissolved at room temperature, then diluted with coating buffer to 2 ng/ml, and aliquoted into a hydrophobic enzyme-labeled plate at 100 μL/well, while 100 μL coating buffer only were pipetted into another 3 wells as a blank control, incubated overnight at 2-8° C. […] A microplate reader was used to measure the absorbance at 450 nm with a wavelength of 650 nm as the reference wavelength.
Assay endpoint: ELISA signal value of protein scFv (absorbance 450 nm)
Answers are plain numbers, in absorbance 450 nm.

Task: Can you share its ELISA signal value of protein scFv? I mean this binder: P1D1 scFv (scFv) scFv: QVQLVQSGAEVKKPGESLKISCKGSGYSFTSYWIGWVRQMPGKGLEWMGIIYPGDSDTRYSPSFQGQVTISADKSISTAYLQWSSLKASDTAMYYCARRSVAGLDYWGQGTLVTVSSGSASAPTLGQGGGGGSGGGGSGGGGSKTVVTQPPSASGTPGQRVTISCSGSSSNIGSKYVYWYQQLPGTAPRLLIYRNNQRPSGVPDRFSGSKSGTSASLAISGLRSEDESDYYCASWDDRLKGYAFGTGTKVTVL
Result: 2.97
